- Tested on: CAKI-1 renal
- Experimental protocol: NCI-60 one-dose screen, 48 h (100 = growth as untreated, 0 = no growth, -100 = all killed)
- Test parameters: 10 µM unless noted
- Protocol: Growth inhibition of the CAKI-1 human tumor cell line is measured as a screen for anti-cancer activity. Cells are grown in 96 well plates and exposed to the test compound for 48 hours. Compounds are tested at a single concentration, which is 10^-5 M for most compounds. The reported endpoint is percent growth (GI% or GIPRCNT), where numbers from 0 - 100% represent growth inhibition, and numbers from -100% - 0 represent cell death. For example, a value of 40 represents 60% growth inhibition. […]
The panel holds about 83,000 compounds, 20% with a hit somewhere; the sample as a whole holds those more often.
Recorded metric: growth (%)

{"columns": ["Compound", "Recorded metric", "Measure unit", "Value reported"],
 "data": [
  ["O=C1CCc2c(sc3[nH]c(=S)n(Cc4ccccc4)c(=O)c23)C1", "growth", "%", 24.1],
  ["Cc1ccc(S(=O)(=O)N(CCc2ccc(Cl)cc2)S(=O)(=O)c2ccc(C)cc2)cc1", "growth", "%", 72.8],
  ["O=C(COc1cccc(/C=C2/Oc3ccccc3C2=O)c1)Nc1nccs1", "growth", "%", 37],
  ["Cn1c(=O)c2[nH]c(C(O)C(O)C(O)C(O)CO)nc2n(C)c1=O (stereo not given)", "growth", "%", 102],
  ["CCCC(=O)Oc1ccc(/C(=C(/CC)Cc2ccccc2)c2ccc(OCCN3CCCC3)cc2)cc1", "growth", "%", 85.2],
  ["COc1cc(NC(N)=NCC(C)(C)COc2ccc(C(F)(F)F)cc2)cnc1C#N", "growth", "%", 62.8],
  ["COc1ccc(-c2csc(NC(=O)CN3CCN(c4cc5c(cc4F)c(=O)c(C(=O)O)cn5C4CC4)CC3)n2)cc1", "growth", "%", 21.3],
  ["O=C1Nc2ccc(Br)cc2C12CC(c1ccccc1)=NN2 (stereo not given)", "growth", "%", 51.5],
  ["Oc1cc(O)c2c(=S)cc(-c3ccc(Cl)cc3)oc2c1", "growth", "%", 76.5],
  ["Cc1ccc(S(=O)(=O)n2cc(-c3csc(-c4cn(C)c5ncccc45)n3)c3ccccc32)cc1", "growth", "%", 48.1]
]}

* * *

- Tested on: NCI-H322M lung
- Experimental protocol: NCI-60 one-dose screen, 48 h
- Test parameters: 10 µM unless noted
Compounds without any hit were thinned out: in the full panel of roughly 83,000, 20% have a hit. Calls of active or inactive are those of the source. The calls were made as follows: active = growth percent below 10; inactive = the rest.
Classes used: 1.0 for active, 0.0 for inactive

{"columns": ["Compound", "Class"],
 "data": [
  ["COc1ccc(/C=C/C(=O)c2c(O)c(C)c(O)c3c2OC2=CC(O)=C(C(C)=O)C(=O)[C@]23C)cc1", 1.0],
  ["Nc1nc2ccc(-c3nc4ccc5[nH]ncc5c4c4c3CCC4)cc2s1", 0.0],
  ["Cc1cc(=O)oc2cc(Oc3nc(-c4ccc(Cl)cc4)cn4c(-c5ccc(Cl)cc5)cnc34)ccc12", 0.0],
  ["O=C1c2c[n+](Cc3ccccc3)ccc2-c2nc3ccccc3c3ccnc1c23", 1.0],
  ["O=C1C=CC(=O)c2c1nc1n2CCCC1", 0.0],
  ["CN(C)CC(=O)Nc1ccc(Cn2nnc3c2C(=O)c2nnn(Cc4ccc(NC(=O)CN(C)C)cc4)c2C3=O)cc1", 1.0],
  ["C=C1CC2(OC1=O)C(=O)Nc1ccccc12 (stereo not given)", 0.0],
  ["N#Cc1ccc(NC(=O)Nc2ccc(Cc3ccc(NC(=O)Nc4ccc(C#N)cc4)cc3)cc2)cc1", 0.0],
  ["O=C(/C=C/c1cc2ccccc2[nH]c1=O)/C=C/c1cc2ccccc2[nH]c1=O", 0.0],
  ["Oc1ccc(Nc2nccc(-c3ccc4ccccc4c3)n2)cc1", 0.0]
]}

* * *

- Test system: SW-620 colon
- Experimental protocol: NCI-60 one-dose screen, 48 h (100 = growth as untreated, 0 = no growth, -100 = all killed)
- Test parameters: 10 µM unless noted
Compounds without any hit were thinned out: in the full panel of roughly 83,000, 20% have a hit.

{"columns": ["Compound", "growth, %"],
 "data": [
  ["COc1ccc(C(=O)c2sc3nc4c(c(C(F)(F)F)c3c2N)CN(C(C)=O)CC4)cc1OC", 100],
  ["O=C1c2cccnc2C(=O)c2c1c(C(=O)OCCN1CCCCC1)c1ccccn21", -13.6],
  ["CCCCCCCCCCCCCC1=NCCN1CCO", -38.6],
  ["CC[C@H](Nc1cc(C)nc(N)n1)c1nc2cccc(NCc3ccc(C(=O)NO)cc3)c2c(=O)n1-c1ccccc1", -10.8],
  ["COc1ccc(CCN2CCCn3c2nc2ccccc2c3=O)cc1", 27],
  ["CN1C2CCC1/C(=C\\c1ccc(Cl)cc1)C1=C2[C@@H](c2ccc(Cl)cc2)C(C#N)=C(N)O1 (stereo partly specified)", 94.3],
  ["COc1cc(C(=O)/C=C/c2c(C)n([O-])c3ccc(C)cc3[n+]2=O)cc(OC)c1OC", 0.477],
  ["CN(C)c1ccc(C2Nc3ccccc3-n3cccc32)cc1 (stereo unspecified)", 97.6],
  ["C=C1C(=O)O[C@H]2[C@H]1CC/C(Cn1cc(Cc3c[nH]c4ccccc34)nn1)=C\\CC[C@@]1(C)O[C@@H]21", -58.7],
  ["COc1ccc(C(=O)/C=C/c2c[n+](=O)c3ccc(F)cc3n2[O-])cc1", 109],
  ["O=C1/C(=C/c2ccc(Cl)c(Cl)c2)CN(C(=O)CCN2CCC(=NO)CC2)C/C1=C\\c1ccc(Cl)c(Cl)c1", -62.9],
  ["COc1nc2c(cc1S(=O)(=O)c1ccccc1)CCc1c-2cnn1-c1ccc(Cl)cc1", 93.1],
  ["Cc1cc2cc3cc(C)c(N(C)C)cc3nc2cc1N(C)C", 17.7],
  ["O=[N+]([O-])c1c(F)cccc1Nc1cccc(F)c1", 108],
  ["COc1ccc(CCN2CC=Cn3c2nc2ccccc2c3=O)cc1", 25.9],
  ["CCN(CC)CCCNc1cc(OC)cc2nc3cc(Cl)ccc3nc12", -36.9],
  ["C[C@@H]1CCC2=C(CCC[C@]2(C)C(=O)O)[C@@]1(C)CCc1ccoc1", 98.8],
  ["Nc1ccc(N2CCOCC2)cc1", 111],
  ["O=C1c2cc3c(cc2-c2c1c1cc(Cl)c(Cl)cc1c(=O)n2CCCn1ccnc1)OCO3", 25.6],
  ["Cc1cc2cc3cc(C)c(N(C)C)cc3[n+](C)c2cc1N(C)C", 14.6],
  ["O=C1OC2C(I)C3CC2C1C3c1ccccc1 (stereo unspecified)", 96.1]
]}

* * *

- Test system: HCT-15 colon
- Experimental protocol: NCI-60 one-dose screen, 48 h
- Test parameters: 10 µM unless noted
Compounds without any hit were thinned out: in the full panel of roughly 83,000, 20% have a hit. Activity calls are given as the source filed them. Rule for the calls: active = growth percent below 10; inactive = the rest.
Outcomes: class 1 = active, class 0 = inactive

{"columns": ["Compound", "Class"],
 "data": [
  ["COc1ccc(C2CC(=O)Nc3c2c(C)nn3-c2nc3ccccc3[nH]2)cc1 (stereo not drawn)", "class 0"],
  ["CNCc1cccc2c1OCCOCCOCCN(C)S(=O)(=O)c1ccc(cc1)-c1cnc(N)c(n1)C(=O)N2", "class 0"],
  ["CCOC(=O)c1cnc2ccc(OC)cc2c1Nc1cccc(S(=O)(=O)NC)c1", "class 0"],
  ["CN1CCN(Cc2ccc(NC(=O)c3cncc(C#Cc4c(N)ncc5ccc(C#N)cc45)c3)cc2C(F)(F)F)CC1", "class 1"],
  ["Cc1noc(C)c1-c1cc(O)cc(C(O)c2ccccc2)c1 (stereo not drawn)", "class 0"],
  ["CC(C)[C@H]1COC(=O)N1[C@@H]1C(=O)N([C@@H](CCC(=O)N2CCN(C3CCCC3)CC2)C(=O)N[C@@H]2CCCc3ccccc32)[C@@H]1/C=C/c1cccc(Br)c1", "class 0"],
  ["COc1ccc(-c2cc(/C=C3\\C(=O)Nc4ccc(Cl)cc43)[nH]n2)cc1", "class 0"],
  ["Cc1ccc2cnc(N)c(C#Cc3cncc(C(=O)Nc4ccc(CN5CCN(C)CC5)c(C(F)(F)F)c4)c3)c2c1", "class 1"]
]}

* * *

- System: MDA-MB-435 melanoma
- Experimental protocol: NCI-60 one-dose screen, 48 h
- Test parameters: 10 µM unless noted
About 83,000 compounds went through this panel and 20% of them were active in at least one assay; those are over-represented in the sample as a whole. Active and inactive are the calls of the source. The calls were made as follows: active = growth percent below 10; inactive = the rest.
Possible outcomes: y = active, n = inactive

{"columns": ["Compound", "Class"],
 "data": [
  ["Oc1c(Cl)cc(Cl)cc1CNc1nccnn1", "n"],
  ["CN(C)CC(=O)Nc1ccc(Cn2nnc3c2C(=O)c2nnn(Cc4ccc(NC(=O)CN(C)C)cc4)c2C3=O)cc1", "y"],
  ["Cn1c2c(Cl)c(Cl)ccc2c2ccn3c(=O)c4ccccc4nc3c21", "n"],
  ["O=C(CO[N+](=O)[O-])Nc1ccc(C(=O)/C=C/c2ccc3c(c2)OCO3)cc1", "n"],
  ["Brc1cccc(-c2nc(-c3ccc4c(c3)OCCO4)co2)c1", "y"],
  ["O=C(/C=C/c1cccc(Br)c1)c1ccccc1", "n"],
  ["NCc1cn2cc(Cl)sc2n1", "n"],
  ["COc1cccc(-n2cc(-c3nc(Nc4cc(C)[nH]n4)c4ccccc4n3)nn2)c1", "n"],
  ["CCCCCCCCCCNC(=O)CCl", "n"],
  ["CCCCCn1cnc2c(=S)nc[nH]c21", "n"],
  ["COc1ccc(-c2nn(-c3ccccc3)cc2/C=C/C(=O)OCc2cn(-c3ccc(F)c(Cl)c3)nn2)cc1", "n"],
  ["COC1=CC(=O)C(OC)=C(OC)C1=O", "n"],
  ["NS(=O)(=O)N(c1cc(C(F)(F)F)cc(C(F)(F)F)c1)C1CCN(Cc2ccc(F)cc2)CC1", "n"],
  ["CCOC(=O)C(C#N)C1CCCCC1 (stereo not drawn)", "n"],
  ["CCN(CC)CCCC(C)Nc1ccnc2c(OC)cccc12 (stereo not drawn)", "n"],
  ["CN1C2CCC1/C(=C\\c1ccc(Cl)cc1)C1=C2[C@@H](c2ccc(Cl)cc2)C(C#N)=C(N)O1 (stereo partly drawn)", "n"],
  ["CCNS(=O)(=O)c1ncnc2nc[nH]c12", "n"],
  ["Nc1cccc(NC(=O)C(=O)Nc2cccc(N)c2)c1", "n"],
  ["O=C1C(Cl)=C(Cl)C(=O)c2c1nc1n2CCCC1", "n"],
  ["COc1ccc(-c2cc(-c3cccnc3)nc3sc4c(=O)n(-c5ccc(C)cc5)cnc4c23)cc1OC", "n"],
  ["CCCCN(CC)CCCCCCCCCCN1CCCc2cc(OC)ccc21", "n"],
  ["CCN(CC)CCCNc1cc(OC)cc2nc3cc(Cl)ccc3nc12", "y"],
  ["NS(=O)(=O)c1ccc(-n2ncc3c(=O)[nH]c(CN4CCN(c5cc6c(cc5F)c(=O)c(C(=O)O)cn6C5CC5)CC4)nc32)cc1", "n"]
]}
